- Assay Target: T1, 4H470-bA
- T1 chain: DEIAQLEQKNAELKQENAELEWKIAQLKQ
- Test Name: two-hybrid library CCNG1;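 further: natural log of median RNA to DNA barcode read ratio; higher means stronger binding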
# note: exactly -0.2 is not below, so it is false; use true for interaction score strictly under it

These solved cases illustrate the format of a correct answer.
DEIAQLEQKIAELKQENAELEWKNAQLKQ [4H344-bA] | false
DKNAQLKQKIAELKQKNAELKWEIAQLEQ [4H3961-bA] | false
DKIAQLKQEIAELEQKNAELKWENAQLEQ [4H2619-bA] | true
DEIAQLEQKIAELKQKIAELKWENAQLEQ [4H363-bA] | true
DEIAQLEQKNAELKQENAELEWKIAQLKQ [4H470-bA] | false

Q. Strictly below -0.2: is that where interaction score of DKIAQLKQENAELEQKNAELKWEIAQLEQ [4H2745-bA] sits?
A. false

Q. Strictly below -0.2: is that where interaction score of DKNAQLKQKIAELKQEIAELEWENAQLEQ [4H3907-bA] sits?
A. true
